experiment: Pharmacokinetic interaction between Styrax and midazolam (i.v. and i.g.) in rats; details: male, Sprague-Dawley, rat, plasma, po, 20 mg/kg, AUC(0-inf), rats; midazolam i.g. 20 mg/kg; pretreated with Styrax i.g. 100 mg/kg
endpointLabel: AUC(0-inf) (ng·h/mL)

>>> print(df.to_string())
                                   compound  endpointlabel  measuredvalue
0  Cc1ncc2n1-c1ccc(Cl)cc1C(c1ccccc1F)=NC2 [midazolam]     AUC(0-inf)            431

====

assay: Stability tests for target pentacyclic triterpenoid acids; settings: nominal level 128.00 nmol/L

compound	unitsText	Stability, Room temperature (24 h, %)
C=C(C)[C@@H]1CC[C@]2(C(=O)O)CC[C@]3(C)[C@H](CC[C@@H]4[C@@]5(C)CC[C@@H](O)C(C)(C)[C@@H]5CC[C@]43C)[C@@H]12 [epibetulinic acid]	%	106.30
C=C(C)[C@@H]1CC[C@]2(C(=O)O)CC[C@]3(C)[C@H](CC[C@@H]4[C@@]5(C)CC[C@H](O)C(C)(C)[C@@H]5CC[C@]43C)[C@@H]12 [betulinic acid]	%	103.89
CC1(C)CC[C@]2(C(=O)O)CC[C@]3(C)C(=CC[C@@H]4[C@@]5(C)CC[C@H](O)C(C)(C)[C@@H]5CC[C@]43C)[C@@H]2C1 [oleanolic acid]	%	99.00
CC1(C)CC[C@]2(C(=O)O)CC[C@]3(C)C(=CC[C@@H]4[C@@]5(C)CCC(=O)C(C)(C)[C@@H]5CC[C@]43C)[C@@H]2C1 [oleanonic acid]	%	98.85
